Details: SEM image, N=200 crystals
I'd appreciate it if you could supply a:b (length/width ratio, number average) values for the items below.
Give bare numbers.

Dear colleague, could you please provide a:b (length/width ratio, number average) for the molecules listed below?
1. CCCCC1=NC2(CCCC2)C(=O)N1Cc1ccc(-c2ccccc2-c2nnn[nH]2)cc1 [Example 2]
2. CCCCC1=NC2(CCCC2)C(=O)N1Cc1ccc(-c2ccccc2-c2nnn[nH]2)cc1 [Example 3]

OUT:
1: 13.4; 2: 23.3

# per-item lookup of a:b (length/width ratio, number average); items listed below
1. CCCCC1=NC2(CCCC2)C(=O)N1Cc1ccc(-c2ccccc2-c2nnn[nH]2)cc1 [Example 5]
2. CCCCC1=NC2(CCCC2)C(=O)N1Cc1ccc(-c2ccccc2-c2nnn[nH]2)cc1 [Example 7]

OUT:
1. 9.5
2. 13

For each listed entry, give its a:b (length/width ratio, number average).
1. CCCCC1=NC2(CCCC2)C(=O)N1Cc1ccc(-c2ccccc2-c2nnn[nH]2)cc1 [Example 1]
2. CCCCC1=NC2(CCCC2)C(=O)N1Cc1ccc(-c2ccccc2-c2nnn[nH]2)cc1 [Example 6]
3. CCCCC1=NC2(CCCC2)C(=O)N1Cc1ccc(-c2ccccc2-c2nnn[nH]2)cc1 [Example 4]

OUT:
1. 13
2. 22
3. 17

All values here come from patent US20090208573A1.
